inhibition reference
Target: Mannose-6-phosphate isomerase (Homo sapiens) (UniProt P34949)
Sequence (P34949 whole entry, looked up): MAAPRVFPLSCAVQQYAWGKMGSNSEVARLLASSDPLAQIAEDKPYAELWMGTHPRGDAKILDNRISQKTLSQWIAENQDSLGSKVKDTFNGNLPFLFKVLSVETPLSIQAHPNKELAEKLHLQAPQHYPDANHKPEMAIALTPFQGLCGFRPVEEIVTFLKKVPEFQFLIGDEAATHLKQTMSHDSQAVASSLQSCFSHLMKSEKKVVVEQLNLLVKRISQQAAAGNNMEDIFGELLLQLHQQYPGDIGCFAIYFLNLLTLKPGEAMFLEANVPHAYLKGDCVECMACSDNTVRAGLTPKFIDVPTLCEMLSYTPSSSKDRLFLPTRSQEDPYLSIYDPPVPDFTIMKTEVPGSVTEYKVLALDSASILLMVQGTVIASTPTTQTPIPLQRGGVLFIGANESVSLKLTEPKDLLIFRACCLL
Assay: MPI inhibition at elevated mannose 6-phosphate – biochemical, fluorescence intensity, high mannose 6-phosphate, primary screen (AID 1220)
Conditions: recombinant PMI enzyme, coupled fluorescence intensity; at 20 µM; hits give high values
Screen size: about 190,000 compounds; about 1,300 (0.68%) were called active. Shown is part of a subset that was picked to be rich in actives.

Determine from records and report inhibition for N#Cc1c(NC(=O)CSc2nnc(-c3ccccc3)o2)sc2c1CCCC2
4.2% (inactive)

Complete the entry with inhibition for O=C1CC(=O)N(CCNc2ncc(C(F)(F)F)cc2Cl)C(=O)N1
2.4% (inactive)

Answer with reported inhibition of CCOc1ccccc1-n1cnc2cc(C(=O)NCc3ccco3)ccc21
-4.7% (inactive)

Give the reported value of inhibition for this record: O=[N+]([O-])c1ccc2cn[nH]c2c1
1.3% (inactive)

Retrieve inhibition measured for COc1ccc2c(c1)OC13CCN(C)CC1C2C(C(=O)c1ccc(F)cc1)C(=O)N3 (stereo not drawn) and print it.
-3.5% (inactive)

Using known records, supply inhibition for CCN1CCN(C(=O)c2ccccc2NS(=O)(=O)c2ccc(Cl)cc2)CC1
-3.6% (inactive)

Name the recorded inhibition of the molecule listed here: O=C(NC1CCCCC1)N1CCC(c2nc3ccccc3[nH]2)CC1
1.1% (inactive)

Identify the reported inhibition for the following entry. Cc1nn(-c2ccccn2)c2c1C(=O)C(Br)CC2 (stereo not drawn)
72.9% (active)

---
In one line, give reported inhibition of the entry O=C(CCOc1ccccc1)Nc1cccc(S(=O)(=O)Nc2ccccc2Cl)c1 .
13.1% (inactive)

Give the value of inhibition reported for the following: O=C(NNC(=S)Nc1ccccc1)c1ccc2ncccc2c1
-9.6% (inactive)

Identify the reported inhibition for the following entry. O=C(NC(=S)Nc1cccc2cccnc12)c1ccccc1
10% (inactive)

Complete the entry with inhibition for CCCNC(=O)/C=C/c1ccc(S(=O)(=O)Nc2ccccc2OC)cc1
-3.6% (inactive)

Fill in inhibition for record C=C(C)C1Cc2c(C)nn(-c3ccccn3)c2C1 (stereo not drawn)
-10.9% (inactive)

In one line, give reported inhibition of the entry Cc1nc(N2CCN(S(=O)(=O)c3cccc4nonc34)CC2)c2c3c(sc2n1)CCCC3 .
14.8% (inactive)

Given CC(C)CCNC(=O)C(NS(=O)(=O)c1ccc2c(c1)c(=O)n(C)c(=O)n2C)c1ccccc1 (stereo not drawn) , respond with its inhibition.
-11.2% (inactive)

Data origin: PubChem BioAssay AID1220
